I'd appreciate it if you could supply Activity values for the items below.
Test system: Myzus persicae
assayMethodText: Displacement of [3H]-methyl-SFX from nAChR in Myzus persicae (green peach aphid) 4106A membrane at 1 ppm after 70 min
Answers are plain numbers, in %.

Sample CCN(CC)c1nc(C)cc(OP(=S)(OC)OC)n1 ; Activity observed: 2

The molecule listed as CNC(=O)c1cc(Cl)cc(C)c1NC(=O)c1cc(Br)nn1-c1ncccc1Cl shows Activity equal to 8

Notebook: CC1(C)[C@H](/C=C(\Cl)C(F)(F)F)[C@@H]1C(=O)O[C@@H](C#N)c1cccc(Oc2ccccc2)c1 (relative stereo) , Activity read as 3

Return reported Activity values for all items listed beneath this line.
1. N#Cc1nn(-c2c(Cl)cc(C(F)(F)F)cc2Cl)c(N)c1[S+]([O-])C(F)(F)F (stereo unspecified)
2. CNC(=O)O/N=C/C(C)(C)SC
3. CCC(C)c1cc([N+](=O)[O-])cc([N+](=O)[O-])c1O (stereo unspecified)

30
0
13

* * *

Tested on: Myzus persicae
assayMethodText: whole plant or invertebrate
Assay type: functional
appliedConditions: 4106A, in Brassica rapa, 72 h
Description: Insecticidal activity against Myzus persicae 4106A (green peach aphid) fed on compound treated chinese cabbage discs after 72 hr
Could you please report measured LC50 for the items listed next?
Numbers only, in µg/mL.

Some compounds with known LC50 results, for comparison:
Entry CCS(=O)(=NC#N)C(C)(C)c1ccc(C(F)(F)F)nc1 (centres undefined) under Myzus persicae had LC50 of 20.5

Summary line: CS(=O)(Cc1ccc(C(F)(F)Cl)nc1)=NC#N (centres undefined) , Myzus persicae, reported LC50 = 9.6

Result for CC(c1ccc(Cl)nc1)S(C)(=O)=NC#N (centres undefined) , tested on Myzus persicae, LC50: 1.4

Measured on Myzus persicae, C/C(=N\C#N)N(C)Cc1ccc(Cl)nc1 has a documented LC50 of 0.6

Provide the reported LC50 of each entry below, same order.
1. CN/C(=N\[N+](=O)[O-])NCc1cnc(Cl)s1
2. CN1COCN(Cc2cnc(Cl)s2)/C1=N\[N+](=O)[O-]

[0.3, 0.5]

* * *

Tested on: Myzus persicae
assayMethodText: whole plant or invertebrate
Format: functional
appliedConditions: 4106A, in Brassica rapa, 72 h
Answer each item with its documented log10 of LC50.
Use the decimal logarithm of LC50 (mg/L).

For orientation, consider the following solved cases.
Item CS(=O)(Cc1cnc(Cl)s1)=NC#N (stereo not drawn) ; assay system Myzus persicae; log10 of LC50 reported as 1.16

Record CC(c1ccc(C(F)(F)F)nc1)S(C)(=O)=NC#N (stereo not drawn) / Myzus persicae, log10 of LC50 recorded as -1.10

I need log10 of LC50 for every entry listed below, if you could help.
1. CN/C(=N/CC1CCOC1)N[N+](=O)[O-] (stereo not drawn)
2. CC(C)(c1ccc(C(F)(F)F)nc1)S(C)(=O)=NC#N (stereo not drawn)

1: 1.00; 2: -0.35

Look at each molecule and report its log10 of LC50.
1. O=[N+]([O-])/N=C1\NCCN1Cc1ccc(Cl)nc1
2. N#C/N=C1\SCCN1Cc1ccc(Cl)nc1
3. C[C@@](F)(c1ccc(C(F)(F)F)nc1)S(C)(=O)=NC#N (stereo partly drawn)
4. CCN(Cc1ccc(Cl)nc1)/C(=C/[N+](=O)[O-])NC

-1.00
-0.40
0.67
0.11

* * *

Test system: Myzus persicae
assayMethodText: whole plant or invertebrate
Format: functional
appliedConditions: 4106A, in Brassica rapa, 72 h
Assignment: determine reported LC50 for the given compounds.

Recorded results for 4 compounds are shown here.
Field LC50 (entry C=CCC(F)(F)c1ccc(C(C)S(C)(=O)=NC#N)cn1 (stereo not given) ) reads > 100 µg/mL

// field: LC50; key: CON=CCCC(F)(F)c1ccc(C(C)S(C)(=O)=NC#N)cn1 (stereo not given) ; value = > 100 µg/mL

The reported value for CC(c1ccc(C(F)(F)F)nc1)S(C)(=O)=NC(N)=O (stereo not given) in terms of LC50 is > 100 µg/mL

The reported value for CC(c1ccc(C(F)(F)F)nc1)S(C)(=O)=N[N+](=O)[O-] (stereo not given) in terms of LC50 is > 100 µg/mL

Continue with the next compound.
The compound identified as Cc1nc(C(F)(F)F)ccc1CS(C)(=O)=NC#N (stereo not given) registered its LC50 at > 100 µg/mL
